These data points were gathered from patent US10874646B2.

Test system: MCF-7
experimental_details: Cytotoxicity, standard NCI assay with sulforhodamine B, 96 h
measurement_parameters: read-out: Cytotoxicity (nM, ± SD) MCF-7; MCF-7; IC50, 96 h at 37° C.; Table 3
Assign IC50 to each entry below.
# output: bare number, implied unit nM

Here C/C(=C\c1csc(C)n1)[C@@H]1C[C@@H]2O[C@]2(C)CCC[C@H](C)[C@H](O)[C@@H](C)C(=O)C(C)(C)[C@@H](O)CC(=O)O1 [EpoB, epothilone B, reference compound] was tested on MCF-7, and its IC50 came to 9.2

The compound `C/C(=C\c1csc(C)n1)[C@@H]1C[C@@H]2O[C@@H]2CCC[C@H](C)[C@H](O)[C@@H](C)C(=O)C(C)(C)[C@@H](O)CC(=O)O1` on MCF-7: IC50 was 14

---

Tested on: MCF7
experimental_details: NCI-60 human cancer cell line panel, five dose screen
Type: cell-based
measurement_parameters: NCI-60 five dose screen
readout_name: GI50 (nM)
Please reply with the bare figure in nM and do not write the unit itself.

C/C(=C\c1cc(C(F)(F)F)n(-c2ccc(N)cc2)n1)[C@@H]1C[C@@H]2O[C@]2(C)CCC[C@H](C)[C@H](O)[C@@H](C)C(=O)C(C)(C)[C@@H](O)CC(=O)O1 [Compound 9] yielded GI50 of 3.65

Lab book: GI50 of C/C(=C\c1ccn(-c2ccc(N)cc2)n1)[C@@H]1C[C@@H]2O[C@]2(C)CCC[C@H](C)[C@H](O)[C@@H](C)C(=O)C(C)(C)[C@@H](O)CC(=O)O1 [Compound 8] noted as 15.2

---

Exercise: state measured GI50 for each of the molecules provided.
Write the number in nM without appending the unit.

# `C/C(=C\c1ccn(-c2ccc(N)cc2)n1)[C@@H]1C[C@@H]2O[C@]2(C)CCC[C@H](C)[C@H](O)[C@@H](C)C(=O)C(C)(C)[C@@H](O)CC(=O)O1` with MDA-MB-435: GI50 is 8.09

# `C/C(=C\c1ccn(-c2ccc(N)cc2F)n1)[C@@H]1C[C@@H]2O[C@]2(C)CCC[C@H](C)[C@H](O)[C@@H](C)C(=O)C(C)(C)[C@@H](O)CC(=O)O1` with MDA-MB-435: GI50 is 8.35

# GI50 measured on MDA-MB-435 for item `C/C(=C\c1ccn(-c2ccccc2N)n1)[C@@H]1C[C@@H]2O[C@]2(C)CCC[C@H](C)[C@H](O)[C@@H](C)C(=O)C(C)(C)[C@@H](O)CC(=O)O1` = 9.56

Measured GI50 (MDA-MB-435), entry `C/C(=C\c1cc(C(F)(F)F)n(-c2ccc(N)cc2)n1)[C@@H]1C[C@@H]2O[C@]2(C)CCC[C@H](C)[C@H](O)[C@@H](C)C(=O)C(C)(C)[C@@H](O)CC(=O)O1` : 2.08

---

readout_name: GI50 (nM)
Write the answer as a number in nM, unit excluded.

Record for `C/C(=C\c1ccn(-c2ccccc2N)n1)[C@@H]1C[C@@H]2O[C@]2(C)CCC[C@H](C)[C@H](O)[C@@H](C)C(=O)C(C)(C)[C@@H](O)CC(=O)O1` under target or system MCF7: GI50 reported as 17.7

Form field, GI50 with MCF7, item `C/C(=C\c1ccn(-c2ccc(N)cc2F)n1)[C@@H]1C[C@@H]2O[C@]2(C)CCC[C@H](C)[C@H](O)[C@@H](C)C(=O)C(C)(C)[C@@H](O)CC(=O)O1` : 14

---

Tested on: MDA-MB-435
experimental_details: Cytotoxicity, standard NCI assay with sulforhodamine B, 96 h
Assay type: cell-based, human
measurement_parameters: MDA-MB-435; IC50, 96 h at 37° C.; Table 3; read-out: Cytotoxicity (nM, ± SD) MDA-MB-435
Kindly supply the reported IC50 values for the records listed here.
Expressed in nM, but write only the number.

// field: IC50; key: C/C(=C\c1csc(C)n1)[C@@H]1C[C@@H]2O[C@]2(C)CCC[C@H](C)[C@H](O)[C@@H](C)C(=O)C(C)(C)[C@@H](O)CC(=O)O1 [EpoB, epothilone B, reference compound] ; value = 5.3

# IC50 (compound: `C/C(=C\c1csc(C)n1)[C@@H]1C[C@@H]2O[C@@H]2CCC[C@H](C)[C@H](O)[C@@H](C)C(=O)C(C)(C)[C@@H](O)CC(=O)O1` ) is 15

---

Test system: OVCAR-8
experimental_details: Cytotoxicity, standard NCI assay with sulforhodamine B, 96 h
measurement_parameters: Homo sapiens, OVCAR-8, 96 h, read-out: Cytotoxicity (nM, ± SD) OVCAR-8
Please go through the items and note down their IC50.
# output: bare number, implied unit nM

For CSc1nc(/C=C(\C)[C@@H]2C[C@@H]3N(CCN)[C@]3(C)CCC[C@H](C)[C@H](O)[C@@H](C)C(=O)C(C)(C)[C@@H](O)CC(=O)O2)cs1 (some centres unmarked) [Compound 79] the molecule record lists IC50 as 63

For CC(=O)O[C@H]1C(=O)[C@@]2(C)[C@H]([C@H](OC(=O)c3ccccc3)[C@]3(O)C[C@H](OC(=O)[C@H](O)[C@@H](NC(=O)c4ccccc4)c4ccccc4)C(C)=C1C3(C)C)[C@]1(OC(C)=O)CO[C@@H]1C[C@@H]2O [PTX, paclitaxel, reference compound] the molecule record lists IC50 as 10

IC50 in this record for C/C(=C\c1csc(N)n1)[C@@H]1C[C@@H]2N(CCO)[C@]2(C)CCC[C@H](C)[C@H](O)[C@@H](C)C(=O)C(C)(C)[C@@H](O)CC(=O)O1 (some centres unmarked) [Compound 83] : 290

Kindly note the recorded IC50 for CSc1cc(/C=C(\C)[C@@H]2C[C@@H]3N(CCO)[C@]3(C)CCC[C@H](C)[C@H](O)[C@@H](C)C(=O)C(C)(C)[C@@H](O)CC(=O)O2)nn1C (some centres unmarked) [Compound 82] , which is 78

Entry CSc1nc(/C=C(\C)[C@@H]2C[C@@H]3N(CCO)[C@]3(C)CCC[C@H](C)[C@H](O)[C@@H](C)C(=O)C(C)(C)[C@@H](O)CC(=O)O2)cs1 (some centres unmarked) [Compound 78] — recorded IC50 = 75

---

Tested on: M14
Kindly state GI50 for each of the entries shown.
The response must be a number in nM with no trailing unit.

Measured GI50, `C/C(=C\c1ccn(-c2ccc(N)cc2)n1)[C@@H]1C[C@@H]2O[C@]2(C)CCC[C@H](C)[C@H](O)[C@@H](C)C(=O)C(C)(C)[C@@H](O)CC(=O)O1` : 19.2

Please fill in: GI50 reported for `C/C(=C\c1cc(C(F)(F)F)n(-c2ccc(N)cc2)n1)[C@@H]1C[C@@H]2O[C@]2(C)CCC[C@H](C)[C@H](O)[C@@H](C)C(=O)C(C)(C)[C@@H](O)CC(=O)O1` = 13.7

Recorded GI50 (compound `C/C(=C\c1ccn(-c2ccc(N)c(C(F)(F)F)c2)n1)[C@@H]1C[C@@H]2O[C@]2(C)CCC[C@H](C)[C@H](O)[C@@H](C)C(=O)C(C)(C)[C@@H](O)CC(=O)O1` ): 4.88

The measured GI50 associated with `C/C(=C\c1ccn(-c2ccc(N)cc2F)n1)[C@@H]1C[C@@H]2O[C@]2(C)CCC[C@H](C)[C@H](O)[C@@H](C)C(=O)C(C)(C)[C@@H](O)CC(=O)O1` reads 18.7

Measured GI50, `C/C(=C\c1ccn(-c2ccccc2N)n1)[C@@H]1C[C@@H]2O[C@]2(C)CCC[C@H](C)[C@H](O)[C@@H](C)C(=O)C(C)(C)[C@@H](O)CC(=O)O1` : 18

---

Consider the following compounds; for each one, report its GI50.
Numbers only here, please. The scale is nM.

Bench note, MDA-MB-468: C/C(=C\c1ccn(-c2ccc(N)c(F)c2)n1)[C@@H]1C[C@@H]2O[C@]2(C)CCC[C@H](C)[C@H](O)[C@@H](C)C(=O)C(C)(C)[C@@H](O)CC(=O)O1 [Compound 12] , GI50 reads 7.22

The compound C/C(=C\c1cc(C(F)(F)F)n(-c2ccc(N)cc2)n1)[C@@H]1C[C@@H]2O[C@]2(C)CCC[C@H](C)[C@H](O)[C@@H](C)C(=O)C(C)(C)[C@@H](O)CC(=O)O1 [Compound 9] , when measured on MDA-MB-468, yielded GI50 of 23.1

# lookup: C/C(=C\c1ccn(-c2ccc(N)cc2F)n1)[C@@H]1C[C@@H]2O[C@]2(C)CCC[C@H](C)[C@H](O)[C@@H](C)C(=O)C(C)(C)[C@@H](O)CC(=O)O1 [Compound 14] on MDA-MB-468, GI50 = 20.9

Sample C/C(=C\c1ccn(-c2ccccc2N)n1)[C@@H]1C[C@@H]2O[C@]2(C)CCC[C@H](C)[C@H](O)[C@@H](C)C(=O)C(C)(C)[C@@H](O)CC(=O)O1 [Compound 10] , system: MDA-MB-468. Its GI50 is 23.4

Simply: C/C(=C\c1ccn(-c2ccc(N)cc2)n1)[C@@H]1C[C@@H]2O[C@]2(C)CCC[C@H](C)[C@H](O)[C@@H](C)C(=O)C(C)(C)[C@@H](O)CC(=O)O1 [Compound 8] , MDA-MB-468, GI50 = 39.2

Sample C/C(=C\c1ccn(-c2ccc(N)c(C(F)(F)F)c2)n1)[C@@H]1C[C@@H]2O[C@]2(C)CCC[C@H](C)[C@H](O)[C@@H](C)C(=O)C(C)(C)[C@@H](O)CC(=O)O1 [Compound 11] , system: MDA-MB-468. Its GI50 is 10.6
